Source of measurements: paper PMC5384110

Target: RT mutant K103N (Human immunodeficiency virus type 1 group M subtype B, UniProt P04585, K690N)
Assay: RT pol assay against RT mutant K103N
pIC50: −log10 of the molar value.
Endpoint Label: pIC50

Input CC(C)c1c(CC2CCCCC2)n(COCc2ccccc2)c(=O)n(O)c1=O . Output pIC50: < 5.00

====

Biological target: HIV RT RNase H (Human immunodeficiency virus type 1 group M subtype B, UniProt P04585)
Endpoint Label: IC50

The compound CC(C)c1c(Cc2ccccc2)n(COCc2ccccc2)c(=O)[nH]c1=O [compound 14, TNK-651] , when measured on HIV RT RNase H (Human immunodeficiency virus type 1 group M subtype B, UniProt P04585), yielded IC50 of > 10 µM
